# protocolDetails: pharmacokinetics study of K-142 after oral administration to mice
# Assay type: in vivo, CD1 mice
# experimentalSetup: CD1, mouse, whole blood, 20 mg/kg, mean ± SEM, calculated 0-60 min, animal #8 excluded
measurementName: Cmax (µg/mL)
One number for each entry, in µg/mL.

Cmax lookup needed for CC1(C)C2CC=C(COc3ccc4c5c(c(=O)oc4c3)CCCC5)C1C2 (stereo not shown) , thanks.
0.0634

---

# protocolDetails: pharmacokinetics study of K-142 after oral administration to mice
# Assay type: in vivo, CD1 mice
# experimentalSetup: CD1, mouse, whole blood, 20 mg/kg, mean ± SEM, calculated 0-60 min, animal #8 excluded
measurementName: AUC(0-inf) (ng·h/mL)
One number for each entry, in ng·h/mL.

AUC(0-inf) lookup needed for CC1(C)C2CC=C(COc3ccc4c5c(c(=O)oc4c3)CCCC5)C1C2 (stereo not shown) , thanks.
26.2
